Assay: Plasma concentrations of daidzein, genistein and equol after soy extract (LC/MS/MS)
Details: human, in vivo, po, 4 capsules

CHEMICAL_SMILES: O=c1c(-c2ccc(O)cc2)coc2cc(O)cc(O)c12
Cmax (ng/mL): 1040

###

Assay: Plasma concentrations of daidzein, genistein and equol after soy extract (LC/MS/MS)
Conditions: human, plasma, po, 4 capsules, time of peak plasma concentration, after four capsules of soy extract, oral; n = 10
REPORTED_METRIC: Tmax (h)

CHEMICAL_SMILES: O=c1c(-c2ccc(O)cc2)coc2cc(O)ccc12
OUTPUT_UNIT: h
REPORTED: 6.1

###

Experiment: Plasma concentrations of daidzein, genistein and equol after soy extract (LC/MS/MS)
Settings: human, in vivo, po, 4 capsules, time of peak plasma concentration, after four capsules of soy extract, oral; n = 10

COMPOUND: O=c1c(-c2ccc(O)cc2)coc2cc(O)cc(O)c12 [genistein]
Tmax / h: 7.3

###

Assay: Plasma concentrations of daidzein, genistein and equol after soy extract (LC/MS/MS)
Settings: human, plasma, po, 4 capsules

CHEMICAL_SMILES: O=c1c(-c2ccc(O)cc2)coc2cc(O)ccc12
Cmax [ng/mL]: 1020
